System: IGROV-ET
readout-name: GI50 (µM)
All answers are understood in µM, so give the number only.

compound	GI50 [µM]
C/C=C\[C@H](C)[C@H]1O[C@@]1(C)[C@@H](O)[C@@H](CO)C(=O)[C@H](CO)[C@@H](O)CC(=O)CC	0.1
C/C=C\[C@H](C)[C@H]1OC1(C)[C@@H](O[Si](C)(C)C(C)(C)C)[C@@H](COC(C)=O)C(=O)[C@H](COC(C)=O)[C@@H](CC(=O)CC)OC(C)=O (stereo partly drawn)	15.8
C/C=C\[C@H](C)[C@H]1OC1(C)[C@@H](O[Si](C)(C)C(C)(C)C)[C@@H](CO)C(=O)[C@H](CO)[C@H](O)CC(=O)CC (stereo partly drawn) [20b + 20d]	20.5

Would you mind telling me what GI50 value was observed for C/C=C\[C@H](C)[C@H]1OC1(C)[C@@H](O[Si](C)(C)C(C)(C)C)[C@@H](CO[Si](C)(C)C(C)(C)C)C(=O)[C@H](CO[Si](C)(C)C(C)(C)C)[C@@H](CC(=O)CC)O[Si](C)(C)C(C)(C)C (stereo partly drawn) [Compound 19b] ?
12

Would you mind telling me what GI50 value was observed for C/C=C\[C@H](C)[C@H]1OC1(C)[C@@H](O)[C@@H](CO)C(=O)[C@@H](CO)[C@H](O)CC(=O)CC (stereo partly drawn) ?
17.1

Would you mind telling me what GI50 value was observed for C/C=C\[C@H](C)[C@H]1OC1(C)[C@@H](O)[C@@H](CO)C(=O)[C@H](CO)[C@H](O)CC(=O)CC (stereo partly drawn) ?
6.55

Would you mind telling me what GI50 value was observed for `C/C=C\[C@H](C)[C@H]1O[C@@]1(C)[C@@H](O)[C@@H](COC(C)=O)C(=O)[C@H](CO)[C@@H](O)CC(=O)CC` ?
0.152

Would you mind telling me what GI50 value was observed for C/C=C\[C@H](C)[C@H]1OC1(C)[C@@H](O[Si](C)(C)C(C)(C)C)[C@@H](CO[Si](C)(C)C(C)(C)C)C(=O)[C@@H](CO[Si](C)(C)C(C)(C)C)[C@H](CC(=O)CC)O[Si](C)(C)C(C)(C)C (stereo partly drawn) [Compound 30a] ?
8.27

Would you mind telling me what GI50 value was observed for C/C=C\[C@H](C)[C@H]1OC1(C)[C@@H](O[Si](C)(C)C(C)(C)C)[C@@H](CO)C(=O)[C@H](CO)[C@@H](O)CC(=O)CC (stereo partly drawn) [20a + 20c] ?
13.8

Would you mind telling me what GI50 value was observed for C/C=C\[C@H](C)[C@H]1OC1(C)[C@@H](O[Si](C)(C)C(C)(C)C)[C@@H](COC(C)=O)C(=O)[C@H](CO)[C@H](O)CC(=O)CC (stereo partly drawn) ?
4.52

Would you mind telling me what GI50 value was observed for C/C=C\[C@H](C)[C@H]1OC1(C)[C@@H](O[Si](C)(C)C(C)(C)C)[C@@H](COC(C)=O)C(=O)[C@H](CO)[C@@H](O)CC(=O)CC (stereo partly drawn) ?
7.39

Would you mind telling me what GI50 value was observed for `C/C=C\[C@H](C)[C@H]1O[C@@]1(C)[C@@H](O)[C@@H](CO)C(=O)[C@@H](CO)[C@@H](O)CC(=O)CC` ?
0.703

* * *

Tested on: IGROV
readout-name: GI50

molecule	readout-name	endpoint-value
C/C=C\[C@H](C)[C@H]1O[C@@]1(C)[C@@H](O)[C@@H](CO)C(=O)[C@@H](CO)[C@@H](O)CC(=O)CC	GI50	553 nM
C/C=C\[C@H](C)[C@H]1OC1(C)[C@@H](O[Si](C)(C)C(C)(C)C)[C@@H](CO)C(=O)[C@H](CO)[C@H](O)CC(=O)CC (stereo partly drawn) [20b + 20d]	GI50	20500 nM

Next up:
What GI50 appears in the records for this molecule with IGROV? `C/C=C\[C@H](C)[C@H]1O[C@@]1(C)[C@@H](O)[C@@H](CO)C(=O)[C@H](CO)[C@@H](O)CC(=O)CC`
73 nM

* * *

Listed below: IC (total growth inhibition) values for each entry.
Test system: LoVo-Dox
Assay: Inhibition of cell growth by colorimetric SRB assay, LOVO-DOX
Format: cell-based
Conditions: Homo sapiens; LOVO-DOX; 48 hours exposure; total growth inhibition; read-out: TGI

compound	target-or-test-system	IC (total growth inhibition)
C/C=C\[C@H](C)[C@H]1OC1(C)[C@@H](O[Si](C)(C)C(C)(C)C)[C@@H](CO[Si](C)(C)C(C)(C)C)C(=O)[C@H](CO[Si](C)(C)C(C)(C)C)[C@H](CC(=O)CC)O[Si](C)(C)C(C)(C)C (stereo partly drawn) [Compound 19a]	LoVo-Dox	12.1 µM
C/C=C\[C@H](C)[C@H]1OC1(C)[C@@H](O[Si](C)(C)C(C)(C)C)[C@@H](CO[Si](C)(C)C(C)(C)C)C(=O)[C@H](CO[Si](C)(C)C(C)(C)C)[C@@H](CC(=O)CC)O[Si](C)(C)C(C)(C)C (stereo partly drawn) [Compound 19b]	LoVo-Dox	12 µM
C/C=C\[C@H](C)[C@H]1OC1(C)[C@@H](O[Si](C)(C)C(C)(C)C)[C@@H](COC(C)=O)C(=O)[C@H](COC(C)=O)[C@H](O)CC(=O)CC (stereo partly drawn)	LoVo-Dox	8.9 µM

Would you mind telling me what IC (total growth inhibition) value was observed for `C/C=C\[C@H](C)[C@H]1O[C@@]1(C)[C@@H](O)[C@@H](COC(C)=O)C(=O)[C@H](CO)[C@@H](O)CC(=O)CC` ?
24.1 µM

Would you mind telling me what IC (total growth inhibition) value was observed for C=C(C(=O)[C@H](COC(C)=O)[C@H](O)C1(C)O[C@@H]1[C@@H](C)/C=C\C)[C@@H](O)CC(=O)CC (stereo partly drawn) ?
8.1 µM

Would you mind telling me what IC (total growth inhibition) value was observed for C/C=C\[C@H](C)[C@H]1OC1(C)[C@@H](O)[C@@H](CO)C(=O)[C@H](CO)[C@H](O)CC(=O)CC (stereo partly drawn) ?
26.8 µM

* * *

Listed below: IC (total growth inhibition) values for each entry.
Test system: DU-145
Test: Inhibition of cell growth by colorimetric SRB assay, DU-145
Format: cell-based
Conditions: Homo sapiens; DU-145; 48 hours exposure; total growth inhibition; read-out: TGI
All answers are understood in µM, so give the number only.

Worked set:
molecule	unit-abbreviation	IC (total growth inhibition)
C/C=C\[C@H](C)[C@H]1OC1(C)[C@@H](O[Si](C)(C)C(C)(C)C)[C@@H](CO)C(=O)[C@H](CO)[C@H](O)CC(=O)CC (stereo partly drawn) [20b + 20d]	µM	20.5
C/C=C\[C@H](C)[C@H]1OC1(C)[C@@H](O[Si](C)(C)C(C)(C)C)[C@@H](CO[Si](C)(C)C(C)(C)C)C(=O)[C@H](CO[Si](C)(C)C(C)(C)C)[C@@H](CC(=O)CC)O[Si](C)(C)C(C)(C)C (stereo partly drawn) [Compound 19b]	µM	12

Would you mind telling me what IC (total growth inhibition) value was observed for `C/C=C\[C@H](C)[C@H]1O[C@@]1(C)[C@@H](O)[C@@H](COC(C)=O)C(=O)[C@H](CO)[C@@H](O)CC(=O)CC` ?
0.531

* * *

Listed below: GI50 values for each entry.
Test system: HeLa-APL
Experiment: Inhibition of cell growth by colorimetric SRB assay, HELA-APL
Assay type: cell-based
Conditions: Homo sapiens, 48 h
All answers are understood in µM, so give the number only.

Worked set:
compound	endpoint-value
C=C(C(=O)[C@H](COC(C)=O)[C@H](O)C1(C)O[C@@H]1[C@@H](C)/C=C\C)[C@@H](O)CC(=O)CC (stereo partly drawn)	1.72
C/C=C\[C@H](C)[C@H]1OC1(C)[C@@H](O[Si](C)(C)C(C)(C)C)[C@@H](COC(C)=O)C(=O)[C@H](COC(C)=O)[C@H](O)CC(=O)CC (stereo partly drawn)	3.77
C/C=C\[C@H](C)[C@H]1OC1(C)[C@@H](O[Si](C)(C)C(C)(C)C)[C@@H](COC(C)=O)C(=O)[C@H](CO)[C@@H](O)CC(=O)CC (stereo partly drawn)	10.1
C/C=C\[C@H](C)[C@H]1OC1(C)[C@@H](O[Si](C)(C)C(C)(C)C)[C@@H](COC(C)=O)C(=O)[C@H](COC(C)=O)[C@@H](CC(=O)CC)OC(C)=O (stereo partly drawn)	16.3
C/C=C\[C@H](C)[C@H]1OC1(C)[C@@H](O[Si](C)(C)C(C)(C)C)[C@@H](COC(C)=O)C(=O)[C@H](CO)[C@H](O)CC(=O)CC (stereo partly drawn)	4.27

Would you mind telling me what GI50 value was observed for C/C=C\[C@H](C)[C@H]1OC1(C)[C@@H](O[Si](C)(C)C(C)(C)C)[C@@H](CO)C(=O)[C@H](CO)[C@@H](O)CC(=O)CC (stereo partly drawn) [20a + 20c] ?
12.9
